System: CAKI-1 renal
experimental_protocol: NCI tumour cell line growth inhibition, 48 h
Listed compounds paired with reported TGI

Example entries begin here.
In [3]: df
Out[3]:
                                   compound    result
0  COc1cc(C2SC(C)C(=O)N2c2ccc(-c3csc(NS(=O)(=O)c4ccc(Cl)c(OC)c4)n3)cc2)ccc1O (stereo not given)  > 100 µM
1  O=C(CSc1ncn[nH]1)C[P+](c1ccccc1)(c1ccccc1)c1ccccc1  > 100 µM
2  CCC(c1ccc(OC)cc1)C(CC)c1ccc(O)c(CN2CCN(C)CC2)c1 (stereo not given)   10.6 µM
3  C(=Nc1ccc(-c2nc3ccccc3[nH]2)cc1)c1ccc[nH]1  > 100 µM
4  O=[N+]([O-])c1ccc(N/N=C/CC(O)(C(F)(F)F)C(F)(F)F)c([N+](=O)[O-])c1   > 10 µM

Request: TGI, test system CAKI-1 renal, entry CN(Cc1cccc(F)c1)c1ccc(CO)c(Cl)c1 > 61.3 µM

Request: TGI, test system CAKI-1 renal, entry Nc1c(O)cc(N=C2C(=O)C=CC=C2C(=O)O)c(O)c1C(=O)O > 100 µM

Request: TGI, test system CAKI-1 renal, entry O=[N+]([O-])c1ccc(Oc2nc(Nc3ccc(O[C@H]4CO[C@H]5[C@@H]4OC[C@@H]5O)c(Cl)c3)ncc2F)c(Cl)c1 8.11 µM

Request: TGI, test system CAKI-1 renal, entry NC1=NC(c2ccc(Cl)cc2)N(c2ccc(S(N)(=O)=O)cc2)C(N)=N1 (stereo not given) > 100 µM

Request: TGI, test system CAKI-1 renal, entry C#CC[N+](C)(CC#C)CC#C > 100 µM
